Origin of values: BigSolDB 2.1

# particulars: in n-propanol, 298.15 K
readout_type: solubility (mole fraction)

IN: Item "CS(=O)(=O)c1ccc(C(=O)C2C(=O)CCCC2=O)c([N+](=O)[O-])c1" has what recorded solubility (mole fraction)?
OUT: 0.00274

---

# particulars: in ethanol, 283.15 K
readout_type: solubility (mole fraction)
Please respond with just the number, no unit label.

IN: Item "CS(=O)(=O)c1ccc(C(=O)C2C(=O)CCCC2=O)c([N+](=O)[O-])c1" has what recorded solubility (mole fraction)?
OUT: 0.0023

---

# particulars: in 2-pentanol, 293.15 K
readout_type: solubility (mole fraction)
Please respond with just the number, no unit label.

IN: Item "CS(=O)(=O)c1ccc(C(=O)C2C(=O)CCCC2=O)c([N+](=O)[O-])c1" has what recorded solubility (mole fraction)?
OUT: 0.00114

---

# particulars: in methyl acetate, 308.15 K
readout_type: solubility (mole fraction)
Please respond with just the number, no unit label.

IN: Item "CS(=O)(=O)c1ccc(C(=O)C2C(=O)CCCC2=O)c([N+](=O)[O-])c1" has what recorded solubility (mole fraction)?
OUT: 0.00255
